Parameter: SPOT intensity. Scope: all listed entries.
system_under_test: T1, Nbp2, Q12163
T1 sequence (Q12163 103-180, looked up): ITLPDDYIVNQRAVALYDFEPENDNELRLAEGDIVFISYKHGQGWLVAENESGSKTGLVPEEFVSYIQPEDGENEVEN
experimental_details: SPOT array
test_parameters: median of control spots 357
# print the numeric value only

Below are worked cases with known answers.
ALRRRLPVTRSKINW = 149
VNIPSPSSSPPPIPK = 2
QQNRPLPQLPNRNNR = 0

Would you mind telling me what SPOT intensity value was observed for PELAPKREAPKPPAN ?
281

Would you mind telling me what SPOT intensity value was observed for IHTRRPSSTSQYLIR ?
0

Would you mind telling me what SPOT intensity value was observed for RPPRPPPKPLHLRTE ?
86

Would you mind telling me what SPOT intensity value was observed for VYTRTAFQIPGDDKI ?
0

Would you mind telling me what SPOT intensity value was observed for NSVPIMPTLPPRPYI ?
0
